Where do these numbers come from? They come from paper PMC10085679.

- Subject of test: IFI16FL (Homo sapiens, UniProt Q16666-2 1-729)
- Sequence (Q16666 other isoform, or with tags, fused parts or gaps): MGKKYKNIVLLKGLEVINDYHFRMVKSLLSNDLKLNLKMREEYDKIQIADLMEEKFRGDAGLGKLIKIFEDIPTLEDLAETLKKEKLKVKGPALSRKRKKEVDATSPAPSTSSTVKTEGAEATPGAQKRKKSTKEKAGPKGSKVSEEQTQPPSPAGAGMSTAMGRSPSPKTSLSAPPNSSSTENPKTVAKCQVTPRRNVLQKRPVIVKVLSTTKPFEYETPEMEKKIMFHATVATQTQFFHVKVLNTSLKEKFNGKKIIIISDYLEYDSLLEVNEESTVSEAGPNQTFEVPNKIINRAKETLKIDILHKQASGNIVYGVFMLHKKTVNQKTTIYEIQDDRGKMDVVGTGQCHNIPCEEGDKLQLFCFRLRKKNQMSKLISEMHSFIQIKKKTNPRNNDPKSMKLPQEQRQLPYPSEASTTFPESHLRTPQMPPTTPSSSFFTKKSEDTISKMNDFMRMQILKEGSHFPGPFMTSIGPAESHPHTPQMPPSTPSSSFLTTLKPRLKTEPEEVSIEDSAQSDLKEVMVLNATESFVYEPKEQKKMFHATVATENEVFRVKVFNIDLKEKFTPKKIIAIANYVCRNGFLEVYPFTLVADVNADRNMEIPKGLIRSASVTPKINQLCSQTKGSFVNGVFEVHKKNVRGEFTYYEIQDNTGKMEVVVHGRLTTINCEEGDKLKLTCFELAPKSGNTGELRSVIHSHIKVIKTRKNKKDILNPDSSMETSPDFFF
- Method: competition fluorescence anisotropy; unlabelled competitor against 6 nM 24-bp FAM-dsDNA, 500 nM protein; 160 mM KCl (60 mM KCl for IFI16HinAB); buffer, pH and temperature not given in the available text
- Condition summary: protein: recombinant; tags: C-terminal His6
Quantity name: pIC50
# reply with the number alone; pIC50 is -log10 of concentration in mol/L

Known pIC50 results, listed for orientation:
Inquiry: // query pIC50 value for entry 60-bp DNA:RNA hybrid (DNA:RNA) DNA: TAAGACACGATGCGATAAAATCTGTTTGTAAAATTTATTAAGGGTACAAATTGCCCTAGC RNA: GCUAGGGCAAUUUGUACCCUUAAUAAAUUUUACAAACAGAUUUUAUCGCAUCGUGUCUUA
Reply text: 6.62

Inquiry: Entry 60-base ssRNA_U (ssRNA) RNA: UUUCUUUCUUUCUUUCUUUCUUUCUUUCUUUCUUUCUUUCUUUCUUUCUUUCUUUCUUUC : reported pIC50 = ?
Reply text: 6.52

Inquiry: Record request: pIC50 value, item 60-bp dsRNA (dsRNA) RNA 1: UAAGACACGAUGCGAUAAAAUCUGUUUGUAAAAUUUAUUAAGGGUACAAAUUGCCCUAGC RNA 2: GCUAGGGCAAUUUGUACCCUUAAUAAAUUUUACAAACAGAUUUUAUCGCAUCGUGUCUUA
Reply text: 6.31

Could you now look at the following binder, please?
Inquiry: Using the record for 60-base ssDNA_T (ssDNA) DNA: TTTCTTTCTTTCTTTCTTTCTTTCTTTCTTTCTTTCTTTCTTTCTTTCTTTCTTTCTTTC , report its pIC50.
Reply text: 6.19
